Biological target: T1, Activin A (human, UniProt P08476 311-426)
T1 construct: Homodimer of two βA subunits; bought from R&D Systems (#338-AC); also called inhibin-βA dimer; human Activin A
T1 sequence: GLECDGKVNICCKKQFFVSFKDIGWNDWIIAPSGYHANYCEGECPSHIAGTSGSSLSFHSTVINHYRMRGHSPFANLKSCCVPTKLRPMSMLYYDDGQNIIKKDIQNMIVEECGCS
Test: SPR, captured mAb, 25C
# key: entry, value: Activin A-20 nM (RU)

{"BINDER": "H4H10429P (antibody, human IgG4, V domains shown) VH: QVQLVESGGGVVQPGRSLRLSCVASGFTVSSYGIHWVRQAPGKGLEWVSVIWYDGRNKDYADSVKGRFTISRDNSKNTVYLEMKGLRAEDTALYYCARDKTGDFDSWGQGTLVTVSS VL: DIQMTQSPSSLSASVGDRVTITCRASQNINSFLSWYQQKPGKAPKFLIYDASSIQSGAPSRFSGSGSGTDFTLTISSLQPEDFATYYCQQSYSSPFTFGQGTKLEIK", "RESULT_VALUE": "24.9 RU"}
{"BINDER": "H4H10430P (antibody, human IgG4, V domains shown, also called H4H1430P; H4H10430P2) VH: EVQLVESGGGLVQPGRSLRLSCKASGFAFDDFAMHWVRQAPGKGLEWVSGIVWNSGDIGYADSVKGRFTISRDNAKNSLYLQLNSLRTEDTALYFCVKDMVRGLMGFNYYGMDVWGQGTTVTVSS VL: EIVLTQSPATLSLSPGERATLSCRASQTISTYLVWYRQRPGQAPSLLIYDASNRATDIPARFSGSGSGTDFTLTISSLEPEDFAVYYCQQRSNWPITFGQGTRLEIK", "RESULT_VALUE": "19.4 RU"}
{"BINDER": "H4H10426P (antibody, human IgG4, V domains shown) VH: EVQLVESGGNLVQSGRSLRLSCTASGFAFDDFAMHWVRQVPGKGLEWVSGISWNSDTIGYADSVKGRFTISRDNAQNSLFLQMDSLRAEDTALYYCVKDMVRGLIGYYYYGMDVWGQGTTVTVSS VL: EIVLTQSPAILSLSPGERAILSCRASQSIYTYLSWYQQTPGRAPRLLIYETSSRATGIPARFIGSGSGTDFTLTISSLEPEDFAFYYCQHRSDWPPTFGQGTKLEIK", "RESULT_VALUE": "23 RU"}

## Task Quick one: Activin A-20 nM (RU) for H4H10424P (antibody, human IgG4, V domains shown) VH: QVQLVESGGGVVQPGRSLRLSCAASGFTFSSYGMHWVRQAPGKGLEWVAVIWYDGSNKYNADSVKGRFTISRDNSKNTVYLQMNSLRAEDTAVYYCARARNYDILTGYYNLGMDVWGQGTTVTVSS VL: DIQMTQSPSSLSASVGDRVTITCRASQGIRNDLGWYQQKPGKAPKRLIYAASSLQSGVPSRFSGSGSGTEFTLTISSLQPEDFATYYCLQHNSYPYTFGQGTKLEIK ?
## Result 82 RU
